B1: LINE1-mini (parent)
chain: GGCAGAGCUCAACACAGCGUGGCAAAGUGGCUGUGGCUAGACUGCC

variants of: B1; assay: self-cleavage, relative activity (ratio to wild type); higher = more cleavage; in vitro, sequencing; the parent is a self-cleaving ribozyme
readout label: self-cleavage
The response must contain the number and no unit.

Guide cases for self-cleavage, answers given:
C15U G19U ... 0.87
C13U A16G ... 0.09
G2C C42G ... 0.03
C10G U43A ... 0.01
A11G G36C ... 0.01
A26U C42U ... 0.08
G29A G30A ... 2.29
A12U A41U ... 0.18
G1U C3A ... 0.85
A26U U28G ... 1.74

So, A25C G30C ? Its self-cleavage was 1.64

So, G30A C42G ? Its self-cleavage was 0.05

So, C15U C45A ? Its self-cleavage was 0.21

So, G5A A39U ? Its self-cleavage was 0.1
